Literature Kd values, system: Receptor-interacting serine/threonine-protein kinase 1 (Homo sapiens).
attribute_measured: Kd (nM)

Examples with answers:
molecule	scale_unit	Kd
N#Cc1cccc(CC(=O)Nc2cc(Oc3ccc4nc(NC(=O)C5CC5)sc4c3)ccc2F)c1	nM	780
O=S1(=O)CC2(OCCO2)c2cc3nccc(Nc4ccc5scnc5c4)c3cc21	nM	5950
Cc1cccc(CC(=O)Nc2cc(Oc3ccc4nc(NC(=O)C5CC5)sc4c3)ccc2F)c1	nM	320
CN1C(=S)[C@@H](NC(=O)c2nc(Cc3ccccc3)n(CC(F)(F)F)n2)COc2ccccc21	nM	267
CN1C(=S)[C@@H](NC(=O)c2nc(Cc3ccccc3)n(C3CCOC3)n2)COc2ccccc21 (stereo partly specified)	nM	272
Cc1cccc(NC(=O)Nc2cc(Oc3ccc4nc(NC(=O)C5CC5)sc4c3)ccc2F)c1	nM	2200

P. O=C(Cc1cccc(C(F)(F)F)c1F)Nc1cc(Oc2ccc3nc(NC(=O)C4CC4)sc3c2)ccc1F
Q. CCn1nc(C(=O)N[C@H]2COc3ccccc3N(C)C2=S)nc1Cc1ccccc1
R. COCC(=O)NC1CCC(C(=O)Nc2nc3cc(F)c(Oc4ccc(F)c(NC(=O)Cc5cccc(C(F)(F)F)c5)c4)cc3s2)CC1 (stereo unspecified)
S. O=C(Cc1cccc([N+](=O)[O-])c1)Nc1cc(Oc2ccc3nc(NC(=O)C4CC4)sc3c2)ccc1F
Ask | Arrange these 4 molecules in increasing order of Kd. Give your ranking as a list of the labels in the requested order.
Reply | R, Q, P, S
(R: 15 nM, Q: 79 nM, P: 510 nM, S: 770 nM)

---

Collected set of pKd measured with Receptor-interacting serine/threonine-protein kinase 1 (Homo sapiens) across studies.
Target: Receptor-interacting serine/threonine-protein kinase 1 (Homo sapiens)
Sequence (Q13546 whole entry): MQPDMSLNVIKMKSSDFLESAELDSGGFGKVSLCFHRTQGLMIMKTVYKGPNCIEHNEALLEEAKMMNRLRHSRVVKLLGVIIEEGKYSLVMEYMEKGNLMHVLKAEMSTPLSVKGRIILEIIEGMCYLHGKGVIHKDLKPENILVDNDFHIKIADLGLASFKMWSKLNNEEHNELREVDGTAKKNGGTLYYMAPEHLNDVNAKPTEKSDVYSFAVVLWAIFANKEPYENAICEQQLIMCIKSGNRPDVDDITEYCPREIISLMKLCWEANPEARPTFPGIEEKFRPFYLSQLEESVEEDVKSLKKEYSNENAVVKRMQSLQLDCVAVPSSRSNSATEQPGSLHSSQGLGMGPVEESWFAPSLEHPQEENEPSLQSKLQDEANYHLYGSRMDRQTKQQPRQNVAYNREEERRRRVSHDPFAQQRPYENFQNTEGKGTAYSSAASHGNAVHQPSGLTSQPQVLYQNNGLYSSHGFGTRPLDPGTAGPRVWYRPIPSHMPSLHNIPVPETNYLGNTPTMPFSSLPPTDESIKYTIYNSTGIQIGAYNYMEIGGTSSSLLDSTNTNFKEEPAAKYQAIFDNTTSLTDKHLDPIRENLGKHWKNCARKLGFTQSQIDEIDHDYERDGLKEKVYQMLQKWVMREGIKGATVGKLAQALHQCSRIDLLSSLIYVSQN
pKd: −log10 of the molar value.
attribute_measured: pKd

Examples with their reported pKd follow.
molecule	pKd
N#Cc1c(Oc2ccc(F)c(NC(=O)Cc3cccc(C(F)(F)F)c3)c2)ccc2nc(NC(=O)C3CC3)sc12	6.98
CC1(Cn2cc(-c3ccc4c(c3)CCN4C(=O)Cc3cccc(OC(F)(F)F)c3)c3c(N)n[nH]c(=O)c32)COC1	8.46
O=C(Cc1cccc(C(F)(F)F)c1)Nc1cc(Oc2cc3sc(NC(=O)C4CCC(NC(=O)CCCl)CC4)nc3cc2F)ccc1F (stereo unspecified)	7.37
CN1C(=S)[C@@H](NC(=O)c2n[nH]c(Cc3ccccc3)n2)COc2ccccc21	7.51
CCCCC(=O)NC1CCC(C(=O)Nc2nc3cc(F)c(Oc4ccc(F)c(NC(=O)Cc5cccc(C(F)(F)F)c5)c4)cc3s2)CC1 (stereo unspecified)	7.35
CC1(C)CC1C(=O)Nc1nc2ccc(Oc3ccc(F)c(NC(=O)Cc4cccc(C(F)(F)F)c4)c3)cc2s1 (racemic)	6.32
CN1C(=O)[C@@H](NC(=O)c2cc3cccc(-c4cc(F)ccc4F)c3[nH]2)COc2ccccc21	6.72
CC1(C)C[C@H]1C(=O)Nc1nc2ccc(Oc3ccc(F)c(NC(=O)Cc4cccc(C(F)(F)F)c4)c3)cc2s1	5.77
O=C(Cc1cccc(OC(F)(F)F)c1)Nc1cc(Oc2ccc3nc(NC(=O)C4CC4)sc3c2)ccc1F	7.31
O=C(CCc1cccc(C(F)(F)F)c1)Nc1cc(Oc2ccc3nc(NC(=O)C4CC4)sc3c2)ccc1F	6.29

1. O=C(Cc1ccc(F)c(C(F)(F)F)c1)Nc1cc(Oc2ccc3nc(NC(=O)C4CC4)sc3c2)ccc1F
2. COc1cccc(CC(=O)Nc2cc(Oc3ccc4nc(NC(=O)C5CC5)sc4c3)ccc2F)c1
Ask | Hey, which is lower on measured pKd, 1 or 2 ? # respond with the chosen item's label
Reply | 1
(1: 6.23, 2: 6.62)

I. CC(C)C(=O)NC1CCC(C(=O)Nc2nc3cc(F)c(Oc4ccc(F)c(NC(=O)Cc5cccc(C(F)(F)F)c5)c4)cc3s2)CC1 (stereo unspecified)
II. CN1C(=O)[C@@H](NC(=O)c2cc3cccc(-c4ccc(F)cc4F)c3[nH]2)COc2ccccc21
Ask | Which gives the smaller pKd number: I or II ? Indicate which entry you chose by stating its label.
Reply | II
(II: 6.70, I: 7.82)

1. CN1C(=O)[C@@H](NC(=O)c2cc3cccc(-c4ccccc4F)c3[nH]2)COc2ccccc21
2. O=C(Cc1cccc(C(F)(F)F)c1)Nc1cc(Oc2cc3sc(NC(=O)C4CCC(NC(=O)c5cccs5)CC4)nc3cc2F)ccc1F (stereo unspecified)
Ask | Of 1 and 2 , whose reported pKd is numerically smaller? Give the label of your selection.
Reply | 1
(1: 6.72, 2: 7.16)
